Hey, just so you know, these numbers are from patent US7842469B2.

- TEST_NAME: Bioluminescence emission spectra
- Assay type: physicochemical
- PARTICULARS: emission spectrum with native coelenterazine
Each entry below carries its reported Wavelength (nm) mean.
Provide only the numeric value, understood in nm.

query: Which Wavelength (nm) mean is listed for C124A/M295I: RLuc mutant C124A/M295I (protein) MASKVYDPEQRKRMITGPQWWARCKQMNVLDSFINYYDSEKHAENAVIFLHGNAASSYLWRHVVPHIEPVARCIIPDLIGMGKSGKSGNGSYRLLDHYKYLTAWFELLNLPKKIIFVGHDWGAALAFHYSYEHQDKIKAIVHAESVVDVIESWDEWPDIEEDIALIKSEEGEKMVLENNFFVETMLPSKIMRKLEPEEFAAYLEPFKEKGEVRRPTLSWPREIPLVKGGKPDVVQIVRNYNAYLRASDDLPKMFIESDPGFFSNAIVEGAKKFPNTEFVKVKGLHFSQEDAPDEIGKYIKSFVERVLKNEQ ?
result: 497

query: Request: C124A/S257G: RLuc mutant C124A/S257G (protein) MASKVYDPEQRKRMITGPQWWARCKQMNVLDSFINYYDSEKHAENAVIFLHGNAASSYLWRHVVPHIEPVARCIIPDLIGMGKSGKSGNGSYRLLDHYKYLTAWFELLNLPKKIIFVGHDWGAALAFHYSYEHQDKIKAIVHAESVVDVIESWDEWPDIEEDIALIKSEEGEKMVLENNFFVETMLPSKIMRKLEPEEFAAYLEPFKEKGEVRRPTLSWPREIPLVKGGKPDVVQIVRNYNAYLRASDDLPKMFIEGDPGFFSNAIVEGAKKFPNTEFVKVKGLHFSQEDAPDEMGKYIKSFVERVLKNEQ
result: 493

query: Similarly, F33R/I34M/C124A: RLuc mutant F33R/I34M/C124A (protein) MASKVYDPEQRKRMITGPQWWARCKQMNVLDSRMNYYDSEKHAENAVIFLHGNAASSYLWRHVVPHIEPVARCIIPDLIGMGKSGKSGNGSYRLLDHYKYLTAWFELLNLPKKIIFVGHDWGAALAFHYSYEHQDKIKAIVHAESVVDVIESWDEWPDIEEDIALIKSEEGEKMVLENNFFVETMLPSKIMRKLEPEEFAAYLEPFKEKGEVRRPTLSWPREIPLVKGGKPDVVQIVRNYNAYLRASDDLPKMFIESDPGFFSNAIVEGAKKFPNTEFVKVKGLHFSQEDAPDEMGKYIKSFVERVLKNEQ ?
result: 497

// next entry
query: Requested read-out: Wavelength (nm) mean. Entry: C124A/Q235A: RLuc mutant C124A/Q235A (protein) MASKVYDPEQRKRMITGPQWWARCKQMNVLDSFINYYDSEKHAENAVIFLHGNAASSYLWRHVVPHIEPVARCIIPDLIGMGKSGKSGNGSYRLLDHYKYLTAWFELLNLPKKIIFVGHDWGAALAFHYSYEHQDKIKAIVHAESVVDVIESWDEWPDIEEDIALIKSEEGEKMVLENNFFVETMLPSKIMRKLEPEEFAAYLEPFKEKGEVRRPTLSWPREIPLVKGGKPDVVAIVRNYNAYLRASDDLPKMFIESDPGFFSNAIVEGAKKFPNTEFVKVKGLHFSQEDAPDEMGKYIKSFVERVLKNEQ
result: 489
